Every entry's value here was drawn from paper PMC6981637.

# experimental_target: UniProt:O42275
# Sequence (O42275 24-633): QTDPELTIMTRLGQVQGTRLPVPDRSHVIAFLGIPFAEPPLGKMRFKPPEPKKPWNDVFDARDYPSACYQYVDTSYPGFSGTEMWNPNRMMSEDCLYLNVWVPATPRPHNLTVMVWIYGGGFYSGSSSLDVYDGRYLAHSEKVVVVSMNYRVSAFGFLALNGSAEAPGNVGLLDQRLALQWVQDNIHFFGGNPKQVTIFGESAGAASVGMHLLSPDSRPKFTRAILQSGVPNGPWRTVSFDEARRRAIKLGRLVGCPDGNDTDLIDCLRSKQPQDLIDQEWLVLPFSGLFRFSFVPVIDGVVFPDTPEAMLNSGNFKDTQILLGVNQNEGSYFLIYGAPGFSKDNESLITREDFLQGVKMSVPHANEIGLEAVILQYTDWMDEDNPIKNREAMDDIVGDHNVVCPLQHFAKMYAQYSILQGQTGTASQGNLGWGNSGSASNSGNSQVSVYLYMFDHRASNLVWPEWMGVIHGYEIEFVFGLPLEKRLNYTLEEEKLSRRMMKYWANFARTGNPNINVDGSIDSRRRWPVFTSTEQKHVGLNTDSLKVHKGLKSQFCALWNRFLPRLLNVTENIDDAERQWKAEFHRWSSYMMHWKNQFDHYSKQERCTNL
Returns one of true (1) or false (0); true (1) when SI is >= 0.7.

- compound: "COc1cc(-c2cc(CN3CCC(N4CCCC4=O)c4cc(F)ccc43)on2)cc(OC)c1OC (centres unmarked) [6x]"
  category_label: "true (1)"
- compound: "COc1ccc(C2=NOC(CN3CCC(N4CCCC4=O)c4cc(OC)ccc43)C2)cc1 (centres unmarked) [5j]"
  category_label: "true (1)"
- compound: "COc1ccc2c(c1)C(N1CCCC1=O)CCN2CC1CC(c2ccccc2)=NO1 (centres unmarked) [5i]"
  category_label: "true (1)"
- compound: "COc1ccc(-c2cc(CN3CCC(N4CCCC4=O)c4cc(Br)ccc43)on2)cc1OC (centres unmarked) [6aa]"
  category_label: "false (0)"
